Values compiled from paper PMC8997165.

Test system: TCam2 cells
ASSAY OVERVIEW: XTT cell viability assay, TCam2
Type: cell-based, human
CONDITION NOTES: Homo sapiens, TCam2, 48 h
Entries and their pIC50
// scale note: pIC50 = -log10(conc_M); give the bare number

1. CC(C)(C)c1cnc(CSc2cnc(NC(=O)C3CCN(CC(=O)NCCOCCOCCOCCNc4cccc5c4C(=O)N(C4CCC(=O)NC4=O)C5=O)CC3)s2)o1 (stereo not drawn)	7.12

Query :: What value of pIC50 has been recorded for this entry: CN1CC[C@H](c2c(O)cc(O)c3c(=O)cc(-c4ccccc4Cl)oc23)[C@H](O)C1
Result :: 6.24

====

Test system: MPAF cells
ASSAY OVERVIEW: XTT cell viability assay, MPAF fibroblast control
Type: cell-based, human
CONDITION NOTES: 24 h, XTT viability
IC50: recorded values

Example entries and their recorded answers appear below.
1) COC[C@@H](C)N[C@H]1CC[C@H](Nc2cc(-c3cccc(NCC4(C#N)CCOCC4)n3)c(Cl)cn2)CC1	> 1 µM
2) C=CC(=O)Nc1ccc(C(=O)Nc2[nH]nc3c2CN(C(=O)N[C@H](CN(C)C)c2ccccc2)C3(C)C)cc1	> 1 µM

Query :: # query: IC50 | item CN(C)C/C=C/C(=O)Nc1ccc(C(=O)Nc2cccc(Nc3ncc(Cl)c(-c4c[nH]c5ccccc45)n3)c2)cc1 | system: MPAF cells
Result :: > 1 µM

====

Test system: 2102EP cells
ASSAY OVERVIEW: XTT cell viability assay, 2102EP
Type: cell-based, human
CONDITION NOTES: Homo sapiens, 72 h
Below, each of the compounds is paired with its reported IC50 value.
Hi! Could you send only the number? It should be in nM, unit omitted.

1. CN1CC[C@H](c2c(O)cc(O)c3c(=O)cc(-c4ccccc4Cl)oc23)[C@H](O)C1	18
2. CN(C)C/C=C/C(=O)Nc1ccc(C(=O)N2CCC[C@@H](Nc3ncc(Cl)c(-c4c[nH]c5ccccc45)n3)C2)cc1	74.5

Read the next record carefully.
Query :: Which value of IC50 has been reported for CC(C)(C)c1cnc(CSc2cnc(NC(=O)C3CCN(CC(=O)NCCOCCOCCOCCNc4cccc5c4C(=O)N(C4CCC(=O)NC4=O)C5=O)CC3)s2)o1 (stereo not drawn) in the records?
Result :: 34.8

====

Measured IC50 values are reported for all entries that follow.
Tested on: 2102EP cells
ASSAY OVERVIEW: XTT cell viability assay, 2102EP
Type: cell-based, human
CONDITION NOTES: 24 h
Kindly report the value followed by its unit.

1) C=CC(=O)Nc1ccc(C(=O)Nc2[nH]nc3c2CN(C(=O)N[C@H](CN(C)C)c2ccccc2)C3(C)C)cc1 [YKL-5-124]	318 nM
2) CN(C)C/C=C/C(=O)Nc1ccc(C(=O)Nc2cccc(Nc3ncc(Cl)c(-c4c[nH]c5ccccc45)n3)c2)cc1 [THZ1]	95.6 nM

Then this molecule:
Query :: Param readout = IC50; param system = 2102EP cells; param query = COC[C@@H](C)N[C@H]1CC[C@H](Nc2cc(-c3cccc(NCC4(C#N)CCOCC4)n3)c(Cl)cn2)CC1 [NVP2] ; response: value
Result :: 503 nM

====

System: FS1 cells
ASSAY OVERVIEW: XTT cell viability assay, FS1 Sertoli control
Type: cell-based, human
CONDITION NOTES: FS1, 48 h
Method: The following cell lines were used 2102EP, 2102EP-R, NCCIT, NCCIT-R (all ECs), TCam2 (seminoma cell line), FS1 (Sertoli cell line) and MPAF (human adult fibroblast cell line). Cells were cultivated as described previously. […] The assay was performed based on the reduction in XTT tetrazolium salt as described previously. […] For readout, absorption was measured at 450 nm and 650 nm. Specific XTT signal (450 nm) was subtracted by nonspecific absorbance (650) and blank (cell culture medium). […]
QUANTITY: IC50

Previously resolved entries follow.
1) COC[C@@H](C)N[C@H]1CC[C@H](Nc2cc(-c3cccc(NCC4(C#N)CCOCC4)n3)c(Cl)cn2)CC1	0.0335 µM
2) C=CC(=O)Nc1ccc(C(=O)Nc2[nH]nc3c2CN(C(=O)N[C@H](CN(C)C)c2ccccc2)C3(C)C)cc1	> 1 µM

Field: next compound
Query :: Return IC50 measured with FS1 cells given this compound: CN(C)C/C=C/C(=O)Nc1ccc(C(=O)Nc2cccc(Nc3ncc(Cl)c(-c4c[nH]c5ccccc45)n3)c2)cc1
Result :: > 1 µM
